// values below are reported melting point

Solved cases (4 shown):
[in] Report melting point, nothing else, for this compound: CC(=O)OCC1OC(SC2=NC(=O)C(=Cc3ccc(Cl)cc3Cl)S2)C(OC(C)=O)C(OC(C)=O)C1OC(C)=O (centres unmarked) [Compound 13b]
[out] 167 to 169 °C

[in] Give melting point for the following compound: O=C1NC(=S)S/C1=C\c1ccc2c(c1)OCCO2 [Compound 3c]
[out] 208 to 210 °C

[in] Report melting point for COc1cccc(/C=C2\SC(=S)NC2=O)c1O [Compound 3e]
[out] 199 to 201 °C

[in] Please list melting point recorded for the compound CSC1NC(=O)CS1 (centres unmarked) [Compound 11, 2-methylmercapto-4-thiazolidinone]
[out] 72 to 74 °C

Could you now look at the following compound, please?
[in] Return melting point (reported value) for this compound: CC(=O)OCC1OC(SC2=NC(=O)C(=Cc3ccccc3)S2)C(OC(C)=O)C(OC(C)=O)C1OC(C)=O (centres unmarked) [Compound 13a]
[out] 166 to 168 °C
